# assay protocol: P. aeruginosa biofilm formation inhibitors, primary screen, PAO1 strain, BacTiter-Glo luminescence, LB-PBS (AID 1144)
# measurement parameters: 12 h, higher = more signal
Reported z-score values for the following compounds.
// print number alone

{"compound": "CO[C@H](C1CCCCC1)[C@H](C)C=CCC(=O)OCCCc1ccccc1", "z-score": -0.294}
{"compound": "CCCCC#C[C@@H]1C=C[C@H](Oc2ccc(C(=O)OC)cc2)[C@@H](COC(=O)OCC)O1", "z-score": 0.0612}

Prompt line: Recorded z-score for CCOC(=O)C1=NO[C@]2(C=C(Br)C3(OCCCO3)[C@H]3O[C@H]32)C1 , please?
Response line: 0.892

Prompt line: Entry under review: COc1cccc([C@H]2Oc3ccc(OC)cc3C(=NO[C@@H]3O[C@H](COC(C)=O)[C@@H](OC(C)=O)[C@H](OC(C)=O)[C@H]3OC(C)=O)[C@@H]2O)c1 . Reported z-score?
Response line: 0.0537

Prompt line: Fill in: z-score of CO[C@@H]1COC(=O)[C@@H](C)COC(=O)[C@@H](C)NC(=O)CC=C[C@@H]1C is ___
Response line: -2.01

----------
z-score values by entry
# assay protocol: PSAC antagonists in infected red cells, primary screen, cell-based, P. falciparum Indochina, OD700, 1 h (AID 1154)
# measurement parameters: P. falciparum Indochina infected RBC osmotic lysis, higher = more signal, called active from +8 up or from −8 down
Just the number, please.

Field: example entries. Status: answers known.
{"molecule": "CO[C@@H]1COC(=O)[C@@H]2CCCN2C(=O)[C@@H](C)COC(=O)CC=C[C@H]1C", "z-score": 0.202}
{"molecule": "Cc1ccc(S(=O)(=O)NC(CCc2ccccc2)CC(=O)C(C)(C)C)cc1 (centres undefined)", "z-score": 0.603}
{"molecule": "COC(=O)CC=C[C@@H](C)[C@@H](C=NOC[C@H]1O[C@H](c2ccccc2)C=C[C@@H]1Oc1ccc(OC)cc1)NS(=O)(=O)c1ccc(C)cc1", "z-score": 4.79}

Now turn to the next molecule.
Prompt line: Could you share which z-score value was measured for COC(=O)[C@@H]1CC[C@H](C)[C@@H](c2ccc(C)cc2)N1C(=O)c1ccc(C=NO[C@@H](C)c2cn([C@H](CO)Cc3ccccc3)nn2)cc1 ?
Response line: 4.57

----------
# measured on: Follistatin (Homo sapiens)
# assay protocol: follistatin binders on small-molecule microarrays, primary screen, biochemical, small-molecule microarray, 635/667 nm fluorescence (AID 1132)
# measurement parameters: FST binding, 635 nm fluorescence, higher = more signal
readout kind: composite z-score
Answer with a number only.

Previously resolved entries follow.
{"molecule": "CCOC(=O)[C@H](CC(C)C)NC(=O)CCC1CC(OC(=O)NCc2cccc3ccccc23)CC2(CCCC(COC(=O)NCc3ccncc3)O2)O1 (some centres not stated)", "measured on": "Follistatin (Homo sapiens)", "test value": 0.768}
{"molecule": "CO[C@@H]1COC(=O)CC=C[C@@H](C)[C@@H]2C=C[C@H](O)[C@@H](COC(=O)CC=C[C@H]1C)O2", "measured on": "Follistatin (Homo sapiens)", "test value": 1.45}
{"molecule": "CC(C)(C)N1C(=O)[C@H]2[C@H]3[C@H](O)[C@H](O)CC(=NO[C@@H]4O[C@H](CO)[C@@H](O)[C@H](O)[C@H]4O)[C@H]3CC[C@H]2C1=O", "measured on": "Follistatin (Homo sapiens)", "test value": 0.86}
{"molecule": "CCOC(=O)[C@H](CC(C)C)NC(=O)CCC1CC(OC(=O)NCc2cccc3ccccc23)CC2(CCCC(COC(=O)NCCc3ccc(Cl)cc3)O2)O1 (some centres not stated)", "measured on": "Follistatin (Homo sapiens)", "test value": 0.547}
{"molecule": "CCN1C(=O)[C@H]2[C@H]3[C@H](O)[C@H](O)CC(=NNC(=O)OCc4ccc(OC)cc4)[C@@H]3CC[C@H]2C1=O", "measured on": "Follistatin (Homo sapiens)", "test value": -0.735}
{"molecule": "CO[C@@H]1COC(=O)CC=C[C@H](C)[C@H](OC)COC(=O)[C@H](C)NC(=O)CC=C[C@H]1C", "measured on": "Follistatin (Homo sapiens)", "test value": 1.41}

Then there is this molecule:
Prompt line: Requested field: composite z-score. Item: C[C@@H]1CC[C@H]2C(=O)O[C@@H](Cc3ccccc3)CN2[C@H]1c1ccc(Br)cc1
Response line: 0.397
